Biological target: T1, Human FGF19 (human, UniProt O95750 25-216)
T1 construct: Recombinant soluble protein; also called huFGF19; Fibroblast growth factor 19
T1 sequence (O95750 25-216 limits assumed): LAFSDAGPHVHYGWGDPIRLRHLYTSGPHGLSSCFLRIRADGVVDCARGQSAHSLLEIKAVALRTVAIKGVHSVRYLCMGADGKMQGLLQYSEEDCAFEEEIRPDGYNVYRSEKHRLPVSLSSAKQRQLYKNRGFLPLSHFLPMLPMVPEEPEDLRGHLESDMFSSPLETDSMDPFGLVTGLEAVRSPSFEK
Experiment: SPR (BIAcore 2000), IgG on chip, soluble human FGF19
experimentalEndpoint: Ka (fold slower), against chimeric 1A6 (fold)
# value in fold; strip the unit string

Prompt: Return value of Ka (fold slower), against chimeric 1A6 for input hu1A6.S34A (HVR-L1) (antibody, V domains shown) VH: EVQLVESGGGLVQPGGSLRLSCAASGFSLTTYGVHWVRQAPGKGLEWVGVIWPGGGTDYNAAFISRFTISRDNSKNTLYLQMNSLRAEDTAVYYCVRKEYANLYAMDYWGQGTLVTVSS VL: DIQMTQSPSSLSASVGDRVTITCKASQDINSFLAWYQQKPGKAPKLLIYRANRLVDGVPSRFSGSGSGTDFTLTISSLQPEDFATYYCLQYDEFPLTFGQGTKVEIKR , no commentary.
Completion: 7.7

Prompt: Identify Ka (fold slower), against chimeric 1A6 associated with the binder hu1A6.A100bR (HVR-H3) (antibody, name in Kabat numbering, V domains shown) VH: EVQLVESGGGLVQPGGSLRLSCAASGFSLTTYGVHWVRQAPGKGLEWVGVIWPGGGTDYNAAFISRFTISRDNSKNTLYLQMNSLRAEDTAVYYCVRKEYANLYRMDYWGQGTLVTVSS VL: DIQMTQSPSSLSASVGDRVTITCKASQDINSFLSWYQQKPGKAPKLLIYRANRLVDGVPSRFSGSGSGTDFTLTISSLQPEDFATYYCLQYDEFPLTFGQGTKVEIKR
Completion: 2.6

Prompt: State its Ka (fold slower), against chimeric 1A6 for this binder: hu1A6.V50L (HVR-H2) (antibody, name in Kabat numbering, V domains shown) VH: EVQLVESGGGLVQPGGSLRLSCAASGFSLTTYGVHWVRQAPGKGLEWVGLIWPGGGTDYNAAFISRFTISRDNSKNTLYLQMNSLRAEDTAVYYCVRKEYANLYAMDYWGQGTLVTVSS VL: DIQMTQSPSSLSASVGDRVTITCKASQDINSFLSWYQQKPGKAPKLLIYRANRLVDGVPSRFSGSGSGTDFTLTISSLQPEDFATYYCLQYDEFPLTFGQGTKVEIKR
Completion: 6.3

Prompt: Supply Ka (fold slower), against chimeric 1A6 value. Item: hu1A6.H35Q (HVR-H1) (antibody, name in Kabat numbering, V domains shown) VH: EVQLVESGGGLVQPGGSLRLSCAASGFSLTTYGVQWVRQAPGKGLEWVGVIWPGGGTDYNAAFISRFTISRDNSKNTLYLQMNSLRAEDTAVYYCVRKEYANLYAMDYWGQGTLVTVSS VL: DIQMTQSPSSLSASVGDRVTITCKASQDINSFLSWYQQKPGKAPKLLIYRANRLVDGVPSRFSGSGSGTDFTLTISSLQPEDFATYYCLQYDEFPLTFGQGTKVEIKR
Completion: 5

Prompt: Query Ka (fold slower), against chimeric 1A6 for hu1A6.A100bP/M100kS (HVR-H3) (antibody, name in Kabat numbering, V domains shown, also called A100bP/M100cS) VH: EVQLVESGGGLVQPGGSLRLSCAASGFSLTTYGVHWVRQAPGKGLEWVGVIWPGGGTDYNAAFISRFTISRDNSKNTLYLQMNSLRAEDTAVYYCVRKEYANLYPSDYWGQGTLVTVSS VL: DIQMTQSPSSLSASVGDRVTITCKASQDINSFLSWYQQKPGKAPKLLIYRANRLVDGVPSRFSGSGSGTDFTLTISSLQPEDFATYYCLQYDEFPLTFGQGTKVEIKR
Completion: 1.7

Prompt: Dear colleague, please send me the reported Ka (fold slower), against chimeric 1A6 for chimeric anti-FGF19 antibody 1A6 (antibody, V domains shown, also called chimeric 1A6; ch1A6) VH: QVQLKQSGPGLVQPSQSLSITCTVSGFSLTTYGVHWVRQSPGKGLEWLGVIWPGGGTDYNAAFISRLSITKDNSKSQVFFKMNSLLANDTAIYFCVRKEYANLYAMDYWGQGTLLTVSA VL: DIKMTQSPSSMYASLGERVTIPCKASQDINSFLSWFQQKPGKSPKTLIYRANRLVDGVPSRFSGSGSGQDYSLTISSLEYEDMGIYYCLQYDEFPLTFGAGTKVEIKR when you can.
Completion: 1

Prompt: Name the recorded Ka (fold slower), against chimeric 1A6 of the item hu1A6.S34T (HVR-L1) (antibody, V domains shown) VH: EVQLVESGGGLVQPGGSLRLSCAASGFSLTTYGVHWVRQAPGKGLEWVGVIWPGGGTDYNAAFISRFTISRDNSKNTLYLQMNSLRAEDTAVYYCVRKEYANLYAMDYWGQGTLVTVSS VL: DIQMTQSPSSLSASVGDRVTITCKASQDINSFLTWYQQKPGKAPKLLIYRANRLVDGVPSRFSGSGSGTDFTLTISSLQPEDFATYYCLQYDEFPLTFGQGTKVEIKR in your answer.
Completion: 12
